system-tested: U2AF65 (Homo sapiens)
assay-comment: EMSA
measurement-context: Gel shift with constant 5'-32P RNA and varying U2AF65, triplicate; buffer, salt, pH and temperature not given (as previously described, ref 49)
parameter-measured: Kd (nM)
// note: answer is a bare numeric in nM

Qu. I would be grateful if you could share the reported Kd for UAAUUCUUUUUUUCUUUCUGCCCUAG [SR140 intron 9 PY tract] .
Ans. 30

Qu. I'd like to know its Kd. The sequence in question is GCCCUGACCCCUUCCACCCGCUGCAG [LCAT intron 4 PY tract]
Ans. 1900

Qu. Quick one: Kd for UUCGUGCUGACCCUGUCCCUUUUUUUUCCACAGCUGCA [ADML PY tract] ?
Ans. 120

Qu. Sample UCACCACUCCUUUCUCUUUCAUUCAG [U2AF2 intron 6 PY tract] — what was its Kd?
Ans. 80

Qu. Would you mind telling me what Kd value was observed for CAAAGGCGUUGGUUUUGUUUCCACAG [INSR intron 10 PY tract] ?
Ans. 8800

Qu. Reported Kd for GCCCUGACCCCUUUUUUUUGCUGCAG [LCATmut intron 4 PY tract] : what is it?
Ans. 120

Qu. Can you share its Kd? I mean this sequence: CCGCCCACCCCCUCCCCUCACCGCAG [BRUNOL4 intron 9 PY tract]
Ans. 3400

Qu. Requested field: Kd. Item: UUCGUGCUGACCCUGUCCCGUAUUAGUCCACAGCUGCA [ADMLmut PY tract]
Ans. 15800

* * *

system-tested: U2AF65 (Homo sapiens) (UniProt P26368)
Sequence (P26368 whole entry, one chain of several): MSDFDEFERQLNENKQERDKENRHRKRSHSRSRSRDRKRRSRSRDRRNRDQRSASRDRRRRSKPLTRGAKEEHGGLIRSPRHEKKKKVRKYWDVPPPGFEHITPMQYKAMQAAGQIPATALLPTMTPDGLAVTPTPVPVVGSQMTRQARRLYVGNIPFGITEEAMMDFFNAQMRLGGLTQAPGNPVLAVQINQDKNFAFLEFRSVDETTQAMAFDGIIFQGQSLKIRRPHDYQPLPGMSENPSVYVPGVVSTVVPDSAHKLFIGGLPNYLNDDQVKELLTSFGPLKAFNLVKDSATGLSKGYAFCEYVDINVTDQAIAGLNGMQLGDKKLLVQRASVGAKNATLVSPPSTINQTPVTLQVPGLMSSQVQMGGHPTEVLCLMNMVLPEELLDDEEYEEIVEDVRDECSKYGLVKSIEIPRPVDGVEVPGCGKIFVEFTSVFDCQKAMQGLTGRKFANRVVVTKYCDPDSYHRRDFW
assay-comment: EMSA
measurement-context: estimated (asterisk), saturation not reached; Gel shift with constant 5'-32P RNA and varying U2AF65, triplicate; buffer, salt, pH and temperature not given (as previously described, ref 49)
parameter-measured: pKd
API: returns pKd as number; meaning -log10 of concentration in mol/L.

Qu. Given CCCUGGCUCACUCCCCUGCCCUGCAG [ITGB4 intron 31 PY tract] , state its recorded pKd.
Ans. 4.28

* * *

system-tested: U2AF65 (Homo sapiens)
assay-comment: EMSA
measurement-context: estimated (asterisk); no detectable binding at concentrations tested; Gel shift with constant 5'-32P RNA and varying U2AF65, triplicate; buffer, salt, pH and temperature not given (as previously described, ref 49)
parameter-measured: pKd
Here pKd is given on a logarithmic scale as minus log10 of the concentration in mol/L.

Qu. Item under review: CAUGUGCUCGCUGCCUGCUAAUUAAG [MBNL1 intron 6 PY tract] . Reported pKd?
Ans. 4.00
